target: cytoplasmic domain of the human CSF-1R (Homo sapiens, UniProt P07333); construct: Recombinant protein corresponding to the cytoplasmic domain of the human CSF-1R; purchased Invitrogen Corporation, Carlsbad, Calif; PV3249; experiment: In vitro kinase assay for CSF-1R (AlphaScreen); assay type: biochemical; details: tested at about 1 μM; read-out: CSF1RK 1 percent inhibition
Measurement Label: inhibition at 1 µM (%)

Please review the following examples before continuing.
> print(dat)
                                smiles.text   measurement.label  units  assay.result
1  Nc1ncc(-c2cncc(Oc3ccc4nc(N[C@@H]5CCCC[C@H]5O)sc4c3)c2)cn1  inhibition at 1 µM      %           100
2  CNC(=O)c1cncc(Oc2ccc3nc(N[C@@H](C)C4CCCCC4)sc3c2)n1  inhibition at 1 µM      %            97
3  O[C@@H]1CCCC[C@H]1Nc1nc2ccc(Oc3ncnc4ccccc34)cc2s1  inhibition at 1 µM      %           100
4  CC(=O)NCCNc1cc(Oc2ccc3nc(NCC4CCCCC4)sc3c2)ncn1  inhibition at 1 µM      %            80
5  CN(C)c1ncc(-c2cncc(Oc3ccc4nc(N[C@@H]5CCCC[C@H]5O)sc4c3)c2)cn1  inhibition at 1 µM      %           100

I = CCn1cc(-c2cncc(Oc3ccc4nc(N[C@@H]5CCCC[C@H]5O)sc4c3)c2)cn1
II = c1cc(-n2cncn2)cc(Oc2ccc3nc(NCC4CCCCC4)sc3c2)n1
*Q* Pick one, I or II : lowest reported inhibition at 1 µM. Provide the label of your selected option as the answer.
*A* II

----------
Molecular target: cytoplasmic domain of the human CSF-1R (Homo sapiens, UniProt P07333)
Construct: Recombinant protein corresponding to the cytoplasmic domain of the human CSF-1R; purchased Invitrogen Corporation, Carlsbad, Calif; PV3249
Sequence (P07333 539-972 limits assumed): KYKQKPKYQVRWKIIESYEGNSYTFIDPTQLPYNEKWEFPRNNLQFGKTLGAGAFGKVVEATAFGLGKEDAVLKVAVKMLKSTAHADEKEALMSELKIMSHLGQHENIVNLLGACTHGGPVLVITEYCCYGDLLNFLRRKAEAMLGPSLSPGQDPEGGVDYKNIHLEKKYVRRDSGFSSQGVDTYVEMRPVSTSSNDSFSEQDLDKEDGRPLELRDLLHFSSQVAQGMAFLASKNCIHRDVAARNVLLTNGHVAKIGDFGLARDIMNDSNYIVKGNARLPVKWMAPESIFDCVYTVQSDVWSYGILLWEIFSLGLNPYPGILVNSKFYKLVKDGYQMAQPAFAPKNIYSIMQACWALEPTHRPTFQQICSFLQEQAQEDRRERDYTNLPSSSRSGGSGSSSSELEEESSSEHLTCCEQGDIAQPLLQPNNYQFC
Assay: In vitro kinase assay for CSF-1R (AlphaScreen)
Type: biochemical
Settings: tested at about 1 μM; read-out: CSF1RK 1 percent inhibition
Measurement Label: inhibition at 1 µM (%)

Please review the following examples before continuing.
> print(dat)
                                   compound   measurement.label  assay.result
1  O[C@@H]1CCCC[C@H]1Nc1nc2ccc(Oc3cncc(C4CC4)c3)cc2s1 [Compound 65]  inhibition at 1 µM           100
2  Clc1nccc(Oc2ccc3nc(NCC4CCCCC4)sc3c2)n1 [Compound 4]  inhibition at 1 µM            73
3  CN1CCN(c2ccc(-c3cc(Oc4ccc5nc(N[C@@H]6CCCC[C@H]6O)sc5c4)cnc3Cl)cn2)CC1 [Compound 103]  inhibition at 1 µM           100
4  O[C@@H]1CCCC[C@H]1Nc1nc2ccc(Oc3cncc(-c4ccn[nH]4)c3)cc2s1 [Compound 78]  inhibition at 1 µM           100
5  CCCn1cc(-c2cncc(Oc3ccc4nc(N[C@@H]5CCCC[C@H]5O)sc4c3)c2)cn1 [Compound 58]  inhibition at 1 µM           100

P = Nc1cc(Oc2ccc3nc(N[C@@H]4CCCC[C@H]4O)sc3c2)ncn1 [Compound 9]
Q = O[C@@H]1CCCC[C@H]1Nc1nc2ccc(Oc3ccnc(Cl)n3)cc2s1 [Compound 6]
R = Nc1ccc(Oc2ccc3nc(N[C@@H]4CCCC[C@H]4O)sc3c2)nn1 [Compound 90]
*Q* Put the items in order so that reported inhibition at 1 µM rises from first to last. Output the labels ranked as instructed.
*A* Q, R, P

----------
target: cKIT (Homo sapiens, UniProt P10721); construct: The kinase domain of cKIT was assayed in 50 mM Hepes; purchased Upstate 14-559; experiment: cKIT kinase in vitro biochemical assay (alphascreen); settings: tested at about 1 μM; read-out: CKIT percent inhibition
Sequence (P10721 589-937 limits assumed): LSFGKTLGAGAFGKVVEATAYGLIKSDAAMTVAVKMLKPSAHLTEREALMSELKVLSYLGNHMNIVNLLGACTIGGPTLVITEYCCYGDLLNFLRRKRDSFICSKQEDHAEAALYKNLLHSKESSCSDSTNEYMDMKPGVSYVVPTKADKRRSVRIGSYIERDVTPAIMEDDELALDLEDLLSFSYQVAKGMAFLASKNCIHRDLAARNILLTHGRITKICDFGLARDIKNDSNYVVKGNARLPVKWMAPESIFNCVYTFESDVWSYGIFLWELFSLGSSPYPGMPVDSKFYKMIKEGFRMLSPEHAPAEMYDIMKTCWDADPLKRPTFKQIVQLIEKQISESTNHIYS
Measurement Label: inhibition at 1 µM (%)

Please review the following examples before continuing.
> print(dat)
                                smiles.text                        system.tested  assay.result
1  O[C@@H]1CCCC[C@H]1Nc1nc2ccc(Oc3cncc(Br)c3)cc2s1  cKIT (Homo sapiens, UniProt P10721)            60
2  O[C@@H]1CCCC[C@H]1Nc1nc2ccc(Oc3ccnc(-c4ccncc4)n3)cc2s1  cKIT (Homo sapiens, UniProt P10721)            18
3  CNC(=O)c1cc(Oc2ccc3nc(NCC4CCCCC4)sc3c2)nc(OC)n1  cKIT (Homo sapiens, UniProt P10721)            16
4  C[C@H](Nc1nc2ccc(Oc3ccc(N)nc3)cc2s1)C1CCCCC1  cKIT (Homo sapiens, UniProt P10721)            90

a = O[C@@H]1CCCC[C@H]1Nc1nc2ccc(Oc3cncc(-c4cnn(CCN5CCOCC5)c4)c3)cc2s1
b = CNC(=O)c1cncc(Oc2ccc3nc(N[C@@H]4CCCC[C@H]4O)sc3c2)n1
c = Cn1nccc1-c1cc(Oc2ccc3nc(N[C@@H]4CCCC[C@H]4O)sc3c2)ncn1
d = Cn1cc(-c2cc(Oc3ccc4nc(N[C@@H]5CCCC[C@H]5O)sc4c3)cnc2Cl)cn1
*Q* Put the items in order so that reported inhibition at 1 µM rises from first to last. Output the labels ranked as instructed.
*A* d, c, b, a

----------
molecular target: cytoplasmic domain of the human CSF-1R (Homo sapiens, UniProt P07333); construct: Recombinant protein corresponding to the cytoplasmic domain of the human CSF-1R; purchased Invitrogen Corporation, Carlsbad, Calif; PV3249; assay: In vitro kinase assay for CSF-1R (AlphaScreen); format: biochemical; settings: tested at about 1 μM; read-out: CSF1RK 1 percent inhibition
Measurement Label: inhibition at 1 µM (%)

> print(dat)
                                 smiles.text  assay.result
 1  O=[N+]([O-])c1ccc(Oc2ccc3nc(NCC4CCCCC4)sc3c2)cn1            25
 2  O[C@@H]1CCCC[C@H]1Nc1nc2ccc(Oc3cncc(-c4cnn(CC(F)F)c4)c3)cc2s1           100
 3  O[C@@H]1CCCC[C@H]1Nc1nc2ccc(Oc3cncc(Br)c3)cc2s1           100
 4  C[C@H](Nc1nc2ccc(Oc3cc(-n4cncn4)ccn3)cc2s1)C1CCCCC1            27
 5  N#Cc1ccc(-c2cncc(Oc3ccc4nc(N[C@@H]5CCCC[C@H]5O)sc4c3)c2)cn1            99
 6  CNC(=O)c1cncc(Oc2ccc3nc(NCC4CCCCC4)sc3c2)n1            98
 7  O=C(c1cncc(-c2cncc(Oc3ccc4nc(N[C@@H]5CCCC[C@H]5O)sc4c3)c2)c1)N1CCOCC1           100
 8  C[C@H](Nc1nc2ccc(Oc3ccc(N)nc3)cc2s1)C1CCCCC1           100
 9  c1cc(Oc2ccc3nc(NCC4CCCCC4)sc3c2)nc(N2CCOCC2)n1            94
10  Nc1ccc(-c2cncc(Oc3ccc4nc(N[C@@H]5CCCC[C@H]5O)sc4c3)c2)cn1           100

A = O[C@@H]1CCCC[C@H]1Nc1nc2ccc(Oc3cnc(Cl)c(-c4cccnc4)c3)cc2s1
B = O[C@@H]1CCCC[C@H]1Nc1nc2ccc(Oc3cccnc3)cc2s1
*Q* Pick one, A or B : lowest reported inhibition at 1 µM. Provide the label of your selected option as the answer.
*A* A
(A: 43%, B: 100%)

1 = C[C@H](Nc1nc2ccc(Oc3ccc(C#N)nc3)cc2s1)C1CCCCC1
2 = Cn1nccc1-c1cc(Oc2ccc3nc(N[C@@H]4CCCC[C@H]4O)sc3c2)ncn1
*Q* // pick larger inhibition at 1 µM from pair: 1 vs 2 Provide the label of your selected option as the answer.
*A* 2

A = CN1CCN(c2ccc(-c3cncc(Oc4ccc5nc(N[C@@H]6CCCC[C@H]6O)sc5c4)c3)cn2)CC1
B = O[C@@H]1CCCC[C@H]1Nc1nc2ccc(Oc3cnc(-c4cccnc4)c(-c4cccnc4)c3)cc2s1
*Q* // pick larger inhibition at 1 µM from pair: A vs B Provide the label of your selected option as the answer.
*A* A
(A: 100%, B: 48%)

a = O[C@@H]1CCCC[C@H]1Nc1nc2ccc(Oc3cncc(-c4cn[nH]c4)c3)cc2s1
b = c1nc(Oc2ccc3nc(NCC4CCCCC4)sc3c2)cc(N2CCOCC2)n1
*Q* // pick larger inhibition at 1 µM from pair: a vs b Provide the label of your selected option as the answer.
*A* a
(a: 100%, b: 68%)
